The values you see were collected from ChEMBL document CHEMBL3988442.

tested on: Wolbachia pipientis; assay: Anti-Wolbachia Cell-Based Screen; format: functional; design: scale not given: in the data most compounds retested in dose-response had high values; details: 5 µM
The campaign covered roughly 48,000 compounds. About 13,000 (27%) showed an effect of 50% or more. The list shows a part of the results.
Could you please report measured Percent Effect for the items listed next?
# output: numeric value plus its unit

Lab note: measured Percent Effect of CC(C)n1ccc(-c2cc(C(=O)N3CCN(C)CC3)c3ccccn23)n1.O=C(O)C(F)(F)F was -12.81%

Lab note: measured Percent Effect of O=C(O)c1cc(-c2ccn(CC3CC3)n2)n2ccccc12 was 0.5352%

Lab note: measured Percent Effect of CN(C)C1CCN(C(=O)c2cc(-c3ccn(C)n3)n3ccccc23)CC1.O=C(O)C(F)(F)F was 86.54%

Lab note: measured Percent Effect of COCCn1cc(-c2cc(C(=O)N3CCCC3)c3ccccn23)nc1C was -3.651%

Lab note: measured Percent Effect of Cn1ccc(-c2cc(C(=O)N3CCC(C(N)=O)CC3)c3ccccn23)n1 was 110.4%
